Origin of values: patent US20230407374A1

biological target: short 8-mer DNA zipper (Z1: ATGTCCAT) target interaction; assay: nanoswitch-FRET dose response with blocking oligonucleotides; type: binding; conditions: 1 nM nanoswitches with Z1 target interaction; 95% CI by bootstrapping (1.2 μM, 3.8 μM)
value.kind: Ki (nM)
The reply should be a number in nM, with the unit left off.

Ask: May I ask what Ki has been recorded for TGGACAT [7-mer] ?
Result: 2000
